These measurements were taken from patent US20150056166A1.

Tested on: HK6a (GT6a)
Assay: Luciferase infection assay, chimeric reporter virus HK6a/6a/R2a in Huh7-Lunet/CD81 cells
Format: cell-based, HCV
Settings: Hepatitis C virus, Huh-7, 72 h
quantity name: pIC50
Scale note: pIC50 = -log10(concentration in M).

Field pIC50 (entry COc1ccc(-c2cc(=O)c3c(O)c(O)c(OC)cc3o2)cc1 [BJ486K] ) reads 6.12

* * *

Test system: JcR-2a virus
Test: microbe, parasite or virus in culture
Type: cell-based, HCV
Settings: Hepatitis C virus, Huh-7, read-out: IC50 of BJ486K
pIC50: −log10 of the molar value.
quantity name: pIC50

Field pIC50 (entry COc1ccc(-c2cc(=O)c3c(O)c(O)c(OC)cc3o2)cc1 [BJ486K] ) reads ~6.40
